# System: UACC-257 melanoma
# experimentalDetails: NCI-60 one-dose screen, 48 h (100 = growth as untreated, 0 = no growth, -100 = all killed)
# studyConditions: 10 µM unless noted
The panel holds about 83,000 compounds, 20% with a hit somewhere; the sample as a whole holds those more often.
property: growth (%)

[
  {
    "compound": "C1=Cc2ccccc2N(c2nnc(-c3ccccc3)o2)c2ccccc21",
    "property": "growth",
    "experimentalValue": 111
  },
  {
    "compound": "CC1CCC(C)N(C)C1 (stereo unspecified)",
    "property": "growth",
    "experimentalValue": 105
  },
  {
    "compound": "C=C1CCC2C(C)(CO)C(O)CCC2(C)C1C/C=C1/C(=O)OCC1O/C=C/c1ccccc1 (stereo unspecified)",
    "property": "growth",
    "experimentalValue": 83.6
  },
  {
    "compound": "Cc1nn(-c2ccc([N+](=O)[O-])cc2)c2ncnc(NCCc3ccccc3)c12",
    "property": "growth",
    "experimentalValue": 106
  },
  {
    "compound": "COc1cc(C2NN=C3c4ccccc4CCC32)cc(OC)c1OC (stereo unspecified)",
    "property": "growth",
    "experimentalValue": -36.4
  },
  {
    "compound": "Clc1cc(Cl)cc(-c2ccc(-c3ccc(/C=N/NC4=NCCN4)cc3)s2)c1",
    "property": "growth",
    "experimentalValue": 103
  },
  {
    "compound": "COc1cc(/C(C#N)=C/c2ccc3c(c2OC)OCO3)cc2c1OCO2",
    "property": "growth",
    "experimentalValue": 62.2
  },
  {
    "compound": "Cc1ccc(S(=O)(=O)c2nc(-c3ccccc3)oc2S(C)(=O)=O)cc1",
    "property": "growth",
    "experimentalValue": 74.8
  },
  {
    "compound": "COc1ccc(NC(=O)CSc2nc(-c3ccc(OC)c(OC)c3)cc(-c3cc(OC)c(OC)c(OC)c3)n2)cc1",
    "property": "growth",
    "experimentalValue": 111
  },
  {
    "compound": "N/C(=N\\C(N)=N\\c1nc2ccccc2s1)c1ccncc1",
    "property": "growth",
    "experimentalValue": 95.3
  },
  {
    "compound": "Cc1nn(-c2ccc(Cl)cc2)c2ncnc(N/N=C/c3cccc([N+](=O)[O-])c3)c12",
    "property": "growth",
    "experimentalValue": 103
  },
  {
    "compound": "C=CCSc1n[nH]c(-c2cccs2)n1",
    "property": "growth",
    "experimentalValue": 76.4
  },
  {
    "compound": "O=c1cc/c(=N\\Nc2ccccc2)c(=O)/c1=N/Nc1ccccc1",
    "property": "growth",
    "experimentalValue": 137
  },
  {
    "compound": "CC(C)(C)n1cc(-c2ccnc(NCCNS(=O)(=O)c3ccc(C(F)(F)F)cc3)c2)c(-c2cccc(O)c2)n1",
    "property": "growth",
    "experimentalValue": 47.2
  },
  {
    "compound": "O=C(Nc1cccc(-n2cc(-c3ccncc3)c(-c3ccc(Cl)c(O)c3)n2)c1)c1ccc(N2CCOCC2)c(C(F)(F)F)c1",
    "property": "growth",
    "experimentalValue": 38.9
  },
  {
    "compound": "O=C(CSc1nc2ccccc2[nH]1)c1ccc(N2CCOCC2)cc1",
    "property": "growth",
    "experimentalValue": 102
  },
  {
    "compound": "O=C1NC(=C(Cl)Cl)/C(=N/S(=O)(=O)N2CCC(C3(C(F)(F)F)N=N3)CC2)N1",
    "property": "growth",
    "experimentalValue": 97.2
  },
  {
    "compound": "COc1cc(C2C3=C(COC3=O)Nc3cc4c(cc32)OCO4)cc2c1OCO2 (stereo unspecified)",
    "property": "growth",
    "experimentalValue": 65.1
  },
  {
    "compound": "COc1ccc(-c2nc(/C=N/Nc3cc(C)nc4ccc(Cl)cc34)c(C)o2)cc1",
    "property": "growth",
    "experimentalValue": 104
  },
  {
    "compound": "CC(C)C(C(=O)NCCN1CCOCC1)N1C(=O)/C(=C/c2ccc(Br)cc2)SC1=S (stereo unspecified)",
    "property": "growth",
    "experimentalValue": 106
  },
  {
    "compound": "COc1ccc(C(=O)c2cc(OC)c3c(c2)OCO3)cc1O",
    "property": "growth",
    "experimentalValue": 65.6
  }
]

src = PubChem BioAssay (NCI)
